assaySystem: C-X-C chemokine receptor type 4 (Homo sapiens, UniProt P61073)
Sequence (P61073 whole entry): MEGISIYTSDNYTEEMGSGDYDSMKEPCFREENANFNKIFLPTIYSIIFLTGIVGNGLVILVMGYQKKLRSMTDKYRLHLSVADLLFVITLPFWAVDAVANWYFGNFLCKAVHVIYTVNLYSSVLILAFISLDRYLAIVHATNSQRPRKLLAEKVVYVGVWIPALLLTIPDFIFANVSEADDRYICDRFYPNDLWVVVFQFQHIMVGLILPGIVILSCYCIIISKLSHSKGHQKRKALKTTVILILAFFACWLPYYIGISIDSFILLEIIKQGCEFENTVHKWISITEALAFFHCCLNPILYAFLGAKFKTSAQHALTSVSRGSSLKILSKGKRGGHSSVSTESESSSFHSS
testMethodNotes: Inhibition of PE-conjugated-12G5 anti-CXCR4 antibody binding to CXCR4 in human CEM-CCRF cells preincubated for 30 mins followed by antibody addition by FACS Canto II cytofluorometric analysis
Type: cell-based
outcomeMeasure: IC50

Before answering, review these 3 worked examples.
- compound: "CC(=O)N[C@@H](CCCNC(=N)N)C(=O)N[C@@H](C)C(=O)N[C@H]1CSSC[C@@H](C(=O)O)NC(=O)[C@@H](Cc2ccccc2)NC(=O)[C@H](Cc2ccccc2)NC(=O)[C@H](CCCNC(=N)N)NC1=O"
  assaySystem: "C-X-C chemokine receptor type 4 (Homo sapiens, UniProt P61073)"
  IC50: "> 10 µM"
- compound: "CC(=O)N[C@@H](CCCNC(=N)N)C(=O)N[C@@H](C)C(=O)N[C@H]1CSSC[C@@H](C(=O)O)NC(=O)[C@H](Cc2ccccc2)NC(=O)[C@H](Cc2ccccc2)NC(=O)[C@H](CCCNC(=N)N)NC1=O"
  assaySystem: "C-X-C chemokine receptor type 4 (Homo sapiens, UniProt P61073)"
  IC50: "0.131 µM"
- compound: "CC(=O)N[C@H](CCCNC(=N)N)C(=O)N[C@@H](C)C(=O)N[C@H]1CSSC[C@@H](C(=O)O)NC(=O)[C@H](Cc2ccccc2)NC(=O)[C@H](Cc2ccccc2)NC(=O)[C@H](CCCNC(=N)N)NC1=O"
  assaySystem: "C-X-C chemokine receptor type 4 (Homo sapiens, UniProt P61073)"
  IC50: "> 10 µM"

Read the entry "CC(=O)N[C@@H](CCCNC(=N)N)C(=O)N[C@@H](C)C(=O)N[C@H]1CSSC[C@@H](C(=O)O)NC(=O)[C@H](Cc2ccccc2)NC(=O)[C@H](Cc2ccccc2)NC(=O)[C@@H](CCCNC(=N)N)NC1=O" and write its reported IC50.
> 10 µM

---

assaySystem: C-X-C chemokine receptor type 4 (Homo sapiens, UniProt P61073)
testMethodNotes: Inhibition of PE-conjugated-12G5 anti-CXCR4 antibody binding to CXCR4 in human CEM-CCRF cells preincubated for 30 mins followed by antibody addition by FACS Canto II cytofluorometric analysis
Assay type: cell-based
pIC50: −log10 of the molar value. Positions of bridges follow the written chain, without caps; N, C: chain ends. Residues, ends and D or L forms follow the SMILES beside them.
Quick reference for pIC50 among some compounds

Before answering, review these 5 worked examples.
- compound: "CC(=O)N[C@@H](CCCNC(=N)N)C(=O)N[C@@H](C)C(=O)N[C@H]1CSSC[C@@H](C(=O)O)NC(=O)[C@H](Cc2ccccc2)NC(=O)[C@@H](Cc2ccccc2)NC(=O)[C@H](CCCNC(=N)N)NC1=O"
  pIC50: "< 5.00"
- compound: "CC(=O)N[C@@H](C)C(=O)N[C@@H](C)C(=O)N[C@@H]1CSSC[C@@H](C(=O)O)NC(=O)[C@H](Cc2ccccc2)NC(=O)[C@H](Cc2ccccc2)NC(=O)[C@H](CCCNC(=N)N)NC1=O"
  pIC50: "< 5.00"
- compound: "CC(=O)N[C@@H](CCCNC(=N)N)C(=O)N[C@H](C)C(=O)N[C@H]1CSSC[C@@H](C(=O)O)NC(=O)[C@H](Cc2ccccc2)NC(=O)[C@H](Cc2ccccc2)NC(=O)[C@H](CCCNC(=N)N)NC1=O"
  pIC50: "< 5.00"
- compound: "C[C@H](NC(=O)[C@@H](N)CCCNC(=N)N)C(=O)N[C@H]1CSSC[C@@H](C(N)=O)NC(=O)[C@H](Cc2ccccc2)NC(=O)[C@H](Cc2ccccc2)NC(=O)[C@H](CCCNC(=N)N)NC1=O (H-RACRFFC-NH2; disulfide 3-7)"
  pIC50: 5.23
- compound: "C[C@H](NC(=O)[C@@H](N)CCCNC(=N)N)C(=O)N[C@H]1CSSC[C@@H](C(=O)O)NC(=O)[C@H](Cc2ccccc2)NC(=O)[C@H](Cc2ccccc2)NC(=O)[C@H](CCCNC(=N)N)NC1=O (H-RACRFFC-OH; disulfide 3-7)"
  pIC50: 5.21

Consider the compound "CC(=O)N[C@@H](CCCNC(=N)N)C(=O)N[C@@H](C)C(=O)N[C@@H]1CSSC[C@@H](C(=O)O)NC(=O)[C@H](Cc2ccccc2)NC(=O)[C@H](C)NC(=O)[C@H](CCCNC(=N)N)NC1=O" tested on C-X-C chemokine receptor type 4 (Homo sapiens, UniProt P61073); state its pIC50.
< 5.00
